system: pigweed (Amaranthus retroflexus); assay: Test A pre-/postemergence greenhouse herbicide test, visual injury rating 0-100; assay type: in vivo; settings: Postemergence, 125 g ai/ha
For each of the molecules below, state its Plant response rating (0 to 100 scale), Pigweed.
Give bare numbers.

// known answers, use as guide
# Smiles Text, Recorded Measurement
records = [
    ("CCn1cc(C(=O)c2cccs2)c(-c2cc(F)cc(Cl)c2)n1", 80),
    ("CC(=O)Cn1cc(C(=O)c2ccccc2)c(-c2cc(Cl)cc(Cl)c2)n1", 40),
    ("O=C(c1ccccc1)c1cn(S(=O)(=O)C(F)(F)F)nc1-c1cc(Cl)cc(Cl)c1", 90),
    ("CCn1cc(C(=NNc2ccccc2)c2ccccc2)c(-c2cc(Cl)cc(Cl)c2)n1", 30),
    ("Cn1cc(C(=O)c2cccnc2)c(-c2cc(Cl)cc(Cl)c2)n1", 0),
]

stdin: What does the data say about its Plant response rating (0 to 100 scale), Pigweed? Entry: CCOC(OCC)(c1cccs1)c1c[nH]nc1-c1cc(Cl)cc(Cl)c1
stdout: 80

----------
test system: velvetleaf (Abutilon theophrasti); experiment: Test C pre-/postemergence greenhouse test, plant response rating 0-100; type: in vivo; conditions: Postemergence, 500 g ai/ha; scale 0 to 100
Measured Parameter: Plant response rating, Velvetleaf
Give bare numbers.

# Smiles Text, Plant response rating, Velvetleaf
rows = [
    ("Fc1ccc(NN=C(c2ccccc2)c2c[nH]nc2-c2cc(Cl)cc(Cl)c2)cc1", 70),
    ("CCOC(OCC)(c1cccs1)c1c[nH]nc1-c1cc(Cl)cc(Cl)c1", 75),
    ("O=C(c1ccccc1)c1cn(S(=O)(=O)CC(F)(F)F)nc1-c1cc(Cl)cc(Cl)c1", 85),
]

Value sought for every listed compound: Plant response rating, Velvetleaf.
1. Clc1cc(Cl)cc(-c2n[nH]cc2C(=NNc2ccccc2Cl)c2ccccc2)c1
2. O=Cn1cc(C(=O)c2ccccc2)c(-c2cc(Cl)cc(Cl)c2)n1

stdout:
1. 90
2. 85

----------
For each of the molecules below, state its Kochia plant response rating.
tested on: kochia (Kochia scoparia); experiment: Test E pre-/postemergence greenhouse test, plant response rating 0-100; assay type: in vivo; conditions: Preemergence, 125 g ai/ha, scale 0 to 100

// known answers, use as guide
# Molecule, Target Under Test, Kochia plant response rating
records = [
    ("COCC(=O)n1cc(C(=O)c2ccccc2)c(-c2cc(Cl)cc(Cl)c2)n1 [Compound 16]", "kochia (Kochia scoparia)", 0),
    ("Cn1cc(C(=O)c2ccccc2)c(-c2cc(Cl)cc(Cl)c2)n1 [Compound 54]", "kochia (Kochia scoparia)", 0),
    ("CCn1cc(C(=O)c2ccccc2)c(-c2cc(Cl)cc(Cl)c2)n1 [Compound 31]", "kochia (Kochia scoparia)", 25),
    ("O=C(c1ccccc1)c1cn(S(=O)(=O)C(F)(F)F)nc1-c1cc(Cl)cc(Cl)c1 [Compound 2]", "kochia (Kochia scoparia)", 0),
    ("O=C(c1ccccc1)c1cn(S(=O)(=O)CCl)nc1-c1cc(Cl)cc(Cl)c1 [Compound 1]", "kochia (Kochia scoparia)", 0),
]

Now for a further molecule.
stdin: What does the data say about its Kochia plant response rating? Entry: C#CCn1cc(C(=O)c2ccccc2)c(-c2cc(Cl)cc(Cl)c2)n1 [Compound 39]
stdout: 30

----------
For each of the compounds below, state its Plant response rating, Wheat.
system: winter wheat (Triticum aestivum); assay: Test C pre-/postemergence greenhouse test, plant response rating 0-100; assay type: in vivo; conditions: Postemergence, 250 g ai/ha; scale 0 to 100
Numbers only.

// known answers, use as guide
# Compound, Recorded Measurement
measured = [
    ("CCn1cc(C(=O)c2ccccc2)c(-c2cc(Br)cc(Br)c2)n1 [Compound 38]", 5),
    ("Cn1cc(C(=NN2CCCC2)c2ccccc2)c(-c2cc(Cl)c(Cl)c(Cl)c2)n1 [Compound 25]", 0),
    ("ON=C(c1ccccc1)c1c[nH]nc1-c1cc(Cl)cc(Cl)c1 [Compound 50]", 0),
    ("Clc1cc(Cl)cc(-c2n[nH]cc2C(=NNc2ccccc2Cl)c2ccccc2)c1 [Compound 66]", 0),
]

Now for a further compound.
stdin: What does the data say about its Plant response rating, Wheat? Entry: Cn1cc(C(=O)c2cccs2)c(-c2cc(Cl)cc(Cl)c2)n1 [Compound 17]
stdout: 0

----------
tested on: kochia (Kochia scoparia); assay: Test C postemergence greenhouse test, plant response rating 0-100; format: in vivo; details: 62 g ai/ha
Measured Parameter: Plant response rating (0 to 100), Kochia
Answers are plain numbers.

# Smiles Text, Recorded Measurement
measured = [
    ("O=C(c1ccccc1)c1cn(S(=O)(=O)CCl)nc1-c1cc(Cl)cc(Cl)c1", 80),
]

Value sought for every listed compound: Plant response rating (0 to 100), Kochia.
1. Fc1ccccc1NN=C(c1ccccc1)c1c[nH]nc1-c1cc(Cl)cc(Cl)c1
2. O=Cn1cc(C(=O)c2ccccc2)c(-c2cc(Cl)cc(Cl)c2)n1
3. Cn1cc(C(=O)c2cccs2)c(-c2cc(Cl)cc(Cl)c2)n1

stdout:
1: 65; 2: 80; 3: 30

----------
For each of the molecules below, state its Beggarticks plant response rating.
system: hairy beggarticks (Bidens pilosa); test: Test E pre-/postemergence greenhouse test, plant response rating 0-100; assay type: in vivo; conditions: Preemergence, 250 g ai/ha, scale 0 to 100
Give bare numbers.

// known answers, use as guide
# Molecule, Target Under Test, Measured Parameter, Recorded Measurement
rows = [
    ("O=C(c1ccccc1)c1cn(S(=O)(=O)CCl)nc1-c1cc(Cl)cc(Cl)c1 [Compound 1]", "hairy beggarticks (Bidens pilosa)", "Beggarticks plant response rating", 35),
    ("Cn1cc(C(=O)c2ccccc2)c(-c2cc(Cl)cc(Cl)c2)n1 [Compound 54]", "hairy beggarticks (Bidens pilosa)", "Beggarticks plant response rating", 23),
    ("O=C(c1ccccc1)c1cn(S(=O)(=O)C(F)(F)F)nc1-c1cc(Cl)cc(Cl)c1 [Compound 2]", "hairy beggarticks (Bidens pilosa)", "Beggarticks plant response rating", 0),
]

Now for a further molecule.
stdin: Report Beggarticks plant response rating for CCn1cc(C(=O)c2ccccc2)c(-c2cc(Cl)cc(Cl)c2)n1 [Compound 31] tested on hairy beggarticks (Bidens pilosa).
stdout: 0

----------
system: yellow nutsedge (Cyperus esculentus); test: Test C pre-/postemergence greenhouse test, plant response rating 0-100; format: in vivo; conditions: Cyperus, post-emergence; Postemergence, 125 g ai/ha; read-out: Plant response rating (0 to 100), Nutsedge, Yellow
Text: […]
For each of the compounds below, state its pest or weed control at 125 g/ha.
Numbers only, in %.

# Smiles Text, pest or weed control at 125 g/ha [%]
records = [
    ("Clc1cc(Cl)cc(-c2n[nH]cc2C(=NN2CCCC2)c2ccccc2)c1", 0),
    ("COC(OC)(c1ccccc1)c1c[nH]nc1-c1cc(Cl)cc(Cl)c1", 0),
    ("Cn1cc(C(=O)c2ccccc2)c(-c2cc(Cl)cc(Cl)c2)n1", 0),
    ("C#CCn1cc(C(=O)c2ccccc2)c(-c2cc(Cl)cc(Cl)c2)n1", 0),
    ("CCCn1cc(C(=O)c2ccccc2)c(-c2cc(Cl)cc(Cl)c2)n1", 5),
]

Now for a further compound.
stdin: Report pest or weed control at 125 g/ha for CCn1cc(C(=O)c2ccccc2)c(-c2cc(Cl)cc(Cl)c2)n1 tested on yellow nutsedge (Cyperus esculentus).
stdout: 5

----------
tested on: morningglory (Ipomoea coccinea); experiment: Test C pre-/postemergence greenhouse test, plant response rating 0-100; format: in vivo; settings: Postemergence, 500 g ai/ha; scale 0 to 100
For each of the compounds below, state its Plant response rating, Morningglory.

# Smiles Text, Plant response rating, Morningglory
data = [
    ("Fc1ccc(NN=C(c2ccccc2)c2c[nH]nc2-c2cc(Cl)cc(Cl)c2)cc1", 5),
    ("CCOC(OCC)(c1cccs1)c1c[nH]nc1-c1cc(Cl)cc(Cl)c1", 55),
    ("O=C(c1ccccc1)c1cn(S(=O)(=O)C(F)(F)F)nc1-c1cc(Cl)cc(Cl)c1", 10),
    ("O=Cn1cc(C(=O)c2ccccc2)c(-c2cc(Cl)cc(Cl)c2)n1", 0),
]

stdin: What does the data say about its Plant response rating, Morningglory? Entry: Fc1cccc(NN=C(c2ccccc2)c2c[nH]nc2-c2cc(Cl)cc(Cl)c2)c1
stdout: 0

----------
system: corn (Zea mays); assay: Test C pre-/postemergence greenhouse test, plant response rating 0-100; format: in vivo; settings: Postemergence, 250 g ai/ha; scale 0 to 100
Measured Parameter: Plant response rating, Corn

# Smiles Text, Target Under Test, Plant response rating, Corn
measured = [
    ("O=C(c1ccccc1)c1cn(S(=O)(=O)CC(F)(F)F)nc1-c1cc(Cl)cc(Cl)c1", "corn (Zea mays)", 5),
    ("O=C(c1cncc(F)c1)c1c[nH]nc1-c1cc(Cl)cc(Cl)c1", "corn (Zea mays)", 0),
    ("O=C(c1ccccc1)c1cn(S(=O)(=O)CCl)nc1-c1cc(Cl)cc(Cl)c1", "corn (Zea mays)", 0),
    ("Fc1cccc(NN=C(c2ccccc2)c2c[nH]nc2-c2cc(Cl)cc(Cl)c2)c1", "corn (Zea mays)", 5),
]

Now for a further compound.
stdin: What does the data say about its Plant response rating, Corn? Entry: C=CCn1cc(C(=O)c2ccccc2)c(-c2cc(Cl)cc(Cl)c2)n1
stdout: 5

The measured values listed here are drawn from patent US10167262B2.
